assay: soluble on expression in E. coli; label from the status in PepcDB or PDB records
endpoint.label: soluble on expression in E. coli

MGSDKIHHHHHHMEVIDLLFSLTPKTKKEDLFDRERELKDLEKLLETYPIVVITGLRRVGKSSLVKVFLNKSDLLHITVDGRRLYETSGGNISSHHLTRFLGEELSRISKSQKLLNVLKRVRGITVSGTSIELNPKEFSLSDLLEKLNETAKRRKKKIVIFFDEAQYLRYYGSRGGNDLLALFAYCYDNFENVRFIISGSEVGVLHDFLKLEDYSSPLHGRGIGFLTVRPFTFDQSVDFLMEGFREVGEKINFDVEEIVREIDGIVGYLVLFGVKYLEKKKKDEALKEVFHAVKALFEKEMEELRKRSERYPFILRQIARGINTWSALKNIFRAKGDFIGDSRLYSLLETLEKMSFIEKTQSGYRIVDPVFERILRE :: not soluble
MAHHHHHHMAAMLRLTFALRLSSKQLSHGPLATHTRKQSFRQSKTALQVSRLRSQTQRANFNLQQELNRDFGARQYAFAQGRRSMQRAAEDLMYDRAYRAERHRGRAGEVYRTTKDRAAEVATARQLLQMQESTRRLMKKGRTQRVEAFRAQKQWNR :: not soluble
MSHSAKKALLPLLAVATLAGLAGCATETSTALPVQQVESVNRPYSGVRSPIAVGKFDNRSSYMRGIFSDGVDRLGGQAKTILITHLQQTNRFNVLDRDNMSEIQQEAAIKGQAQRLKGADYVVTGDVTEFGRKEVGDRQLFGILGRGKSQIAYAKVALNIVNISTSEVVYSTQGAGEYALSNREVIGFGGTASYDSTLNGKVLDLAMREAVNKLVNAVDSGAWKPQNQ :: not soluble
MGSDKIHHHHHHMTIRQTKEANLLISERADFQVTAKIEQMAKGYIDRWHQHPWHQIAFPFEGILQTKVADSQFVIPHSGMLFIPANTPHESFVVTDTKFIGIYLNPQFQNHFPLTAKAISVTPFLRELVLHINHGVSNSIVSEEELSKLVAVLIDQISSGESYQMKLLLPSDRRLMIIFKALMTDPQLNTKLSDWAKQVGASERTLSRLFTKELGMTFPLWRQHLRLVSSLNLLETNLSVQEIAFKVGYNADSSFIYAFKKLFQQTPQQYRHSGFKLSSRINDK :: not soluble
TERFRLTLAQLNPTVGDLAGNAALARRAWDEARAAGSDMLALTEMFVTGYQTQDLVLRRAFVEEAMATIERLAADCAEGPAIGIGGPCLEDGRLMNAYWVLEGGRVSARVFKHHLPNAEVFDEKRVFSSGEVHGPCRVGPLRIGIPICEDSWHPDVCETLAETGAEILLVPNGSPYHREKLDVRVNLMVTRVVETGLPLVYLNMVGGQDDQVFDGASFVLNPHGRLMAQLPAFEEALVHVDFE :: not soluble

Asked: Item under review: `MGSDKIHHHHHHMRLLFSTMFLYEYSTDMIAKAVNLAGYDGVEFWPETPYFWVDRAMEKLECLRDFDNAIHVPVLDLNPVSVNPDICNLTLRETLYSIALAAKIKAKPVTVHAGRRSAAREPVWADYLSLSRYLRISSRYAKIKGVTVGLENSENSINNLCKTADEVRKFAEEYDVMVTLDIKHALLNGGVEEFLELFGRICNVHVSYYDEKMRHVQPSRGKEVGDALKELAELGYDGPLTVELDDLGIGNLDFSKKVEILRKERRFVEKFFKR` . Reported soluble on expression in E. coli?
Given back: not soluble
